Assay: Acute toxicity test on mice (LD50)
Conditions: mouse, in vivo, ip
MEASURED_QUANTITY: LD50 (mg/kg)
State the answer as a number, implicitly in mg/kg.

Please give the documented LD50 of COc1ccc2oc(C(=O)N3CCN(Cc4ccccc4)CC3)cc2c1 [According to the invention]
548
